solubility for assorted molecules
assay: Solubility in pH 7.4 phosphate buffered saline; assay type: physicochemical; settings: aqueous buffer
Give a bare numeral; the unit µM is implied.

Cn1cc(-n2cnc3c(NCc4nc5cc(Cl)c(Cl)cc5[nH]4)nc(N4CCOC[C@H]4CO)nc32)cn1 : 0.7
Fc1ccc2[nH]c(CNc3nc(N4CCOCC4)nc4c3ncn4-c3cscn3)nc2c1F : 0.8
Cn1cc(-n2cnc3c(NCc4nc5c(F)c(F)ccc5[nH]4)nc(N4CCOCC4)nc32)cn1 : 6.1

Could you please provide reported solubility for Cc1cc(-n2cnc3c(NCc4nc5c(F)c(F)ccc5[nH]4)nc(N4CCOCC4)nc32)no1 ? Thanks!
3.6
